Data credit: patent US20240270821A1

# Assayed system: human glucagon receptor (human) (UniProt P47871)
# Sequence (P47871 26-477): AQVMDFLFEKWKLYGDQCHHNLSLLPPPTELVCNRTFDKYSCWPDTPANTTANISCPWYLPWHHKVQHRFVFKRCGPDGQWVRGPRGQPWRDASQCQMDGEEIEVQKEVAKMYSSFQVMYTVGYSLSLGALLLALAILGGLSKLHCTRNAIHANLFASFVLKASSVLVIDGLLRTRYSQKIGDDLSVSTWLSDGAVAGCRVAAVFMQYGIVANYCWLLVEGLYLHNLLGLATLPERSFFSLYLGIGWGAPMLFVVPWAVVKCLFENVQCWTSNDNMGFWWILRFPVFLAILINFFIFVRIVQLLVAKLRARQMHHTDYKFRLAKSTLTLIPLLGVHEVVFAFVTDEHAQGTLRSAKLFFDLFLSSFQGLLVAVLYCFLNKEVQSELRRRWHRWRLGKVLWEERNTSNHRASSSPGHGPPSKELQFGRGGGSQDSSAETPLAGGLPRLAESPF
# Experiment description: cell-based or functional assay
Non-standard residues stand in square brackets, D forms with d. No end group written: not given here. NMeY = CN[C@@H](Cc1ccc(O)cc1)C(=O)O; αMeF = C[C@](N)(Cc1ccccc1)C(=O)O; αMeL = CC(C)C[C@](C)(N)C(=O)O; Aib = CC(C)(N)C(=O)O

{"Binder": "[NMeY][Aib]QGT[αMeF]TSDYSILLDKIAAKAFVQWLIAGGPSSGEPPPSEG-NH2 (not fully specified (residue 20)) [Example 300]", "cAMP Rel EC50 (1% HSA) / nM": 976}
{"Binder": "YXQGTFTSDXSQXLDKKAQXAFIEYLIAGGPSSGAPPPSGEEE (non-natural residues; acylated Lys; C-terminal amide; synthetic construct; SITE 2: note = 2-Aminoisobutyric Acid; SITE 10: note = 3-(4-Pyridyl)-L-alanine; SITE 13: note = alpha-methyl-leucine; SITE 17: note = Lysine is chemically modified through conjugation of the epsilon-amino group of the Lysine side chain with (Glu)-(gamma-Glu)-CO-(CH2)16-CO2H; SIT) [Example 1089]", "cAMP Rel EC50 (1% HSA) / nM": 2580}
{"Binder": "YXQGTFTSDXSKXLDKKAQXAFIEYLIEXGPSSGAPPPSGSE (AEEA-γGlu-C18 diacid on Lys; non-natural residues; amide; synthetic construct; SITE 2: note = 2-Aminoisobutyric Acid; SITE 10: note = 3-(4-Pyridyl)-L-alanine; SITE 13: note = alpha-methyl-leucine; SITE 17: note = Lysine is chemically modified through conjugation of the epsilon-amino group of the Lysine side chain with (2-[2-(2-Amino-ethoxy)-ethoxy]-acetyl)) [Example 901]", "cAMP Rel EC50 (1% HSA) / nM": 1150}
{"Binder": "Y[Aib]QGTFTSDYSI[αMeL]LDKQAAKQFVEWLIA[Aib]GPSSGEPPPGSG-NH2 (not fully specified (residue 20)) [Example 335]", "cAMP Rel EC50 (1% HSA) / nM": 1410}
{"Binder": "YXQGTXTSDXXIXLDXKAQXXFIEYLIEGGPSSGEPPPSGT (synthetic construct; SITE 2: note = 2-Aminoisobutyric Acid; SITE 6: note = alpha-methyl-2-fluoro-L-phenylalanine; SITE 10: note = 3-(4-Pyridyl)-L-alanine; SITE 11: note = alpha-methyl-L-serine; SITE 13: note = alpha-methyl-leucine; SITE 16: note = L-ornithine; SITE 17: note = Lysine is chemically mo) [Example 502]", "cAMP Rel EC50 (1% HSA) / nM": 395}
{"Binder": "YXQGTFTSDXSQXLDXKAQXAFIEXLLEGGPSSGAPPPSGS (non-natural residues; Lys acylated C18 diacid; C-terminal amide; synthetic construct; SITE 2: note = 2-Aminoisobutyric Acid; SITE 10: note = 3-(4-Pyridyl)-L-alanine; SITE 13: note = alpha-methyl-leucine; SITE 16: note = L-ornithine; SITE 17: note = Lysine is chemically modified through conjugation of the epsilon-amino group of the Lysine side chain with (2-[2-(2-) [Example 932]", "cAMP Rel EC50 (1% HSA) / nM": 513}
